Recorded values, source ChEMBL document CHEMBL1201862.

tested on: M14; assay: NCI tumour cell line growth inhibition, 48 h
Calls of active or inactive are those of the source. No stated cut-off is given here; in the data, active = GI50 up to about 1.1 µM and inactive = higher.
GI50 values, listed per item
measurement_kind: GI50

                                   compound  system  measurement_kind       value_observed
0  C=C1C(=O)OC2/C=C(/C)C(OC(C)=O)C/C=C(\C)C(OC(=O)C3(C)OC3C)C(O)C12 (centres undefined)     M14              GI50  > 100 µM (inactive)
1  CN(C)CN1C(=O)S/C(=C2\C(=O)N(CN(C)C)c3ccccc32)C1=O     M14              GI50   21.7 µM (inactive)
2     COc1ccccc1-n1c(=O)n(C)c(=O)n1C(C)(C)C     M14              GI50  > 100 µM (inactive)
3  COC(=O)c1c(O)ccc2c1c1c(n2Cc2ccccc2)C(=O)c2ccccc2C1     M14              GI50   52.4 µM (inactive)

###

test system: NCI/ADR-RES; experiment: NCI tumour cell line growth inhibition, 48 h
Calls of active or inactive are those of the source. Rule as the data show it: active = GI50 up to about 1.1 µM and inactive = higher.
measurement_kind: GI50

>>> print(df.to_string())
                                    molecule       system  measurement_kind        value_observed
 0  CCOC(=O)c1c(Sc2ccc([N+](=O)[O-])cc2[N+](=O)[O-])nc2c3ccccc3ccn12  NCI/ADR-RES              GI50  > 71.9 µM (inactive)
 1      COC(=O)/C(C#N)=C(\Nc1ccccc1)N1CCOCC1  NCI/ADR-RES              GI50   > 100 µM (inactive)
 2  CC(C(=O)N1c2ccccc2Sc2ccccc21)N1c2ccccc2Sc2ccccc21 (centres undefined)  NCI/ADR-RES              GI50   > 100 µM (inactive)
 3          O/N=C1\C/C(=N\O)c2c(Br)sc(Br)c21  NCI/ADR-RES              GI50    30.2 µM (inactive)
 4  OC[C@H]1O[C@@H]2O[C@@](COCc3ccccc3)([C@H](OCc3ccccc3)[C@H]2O)[C@@H]1OCc1ccccc1  NCI/ADR-RES              GI50    17.2 µM (inactive)
 5                  N/C(CSCCSC/C(N)=N/O)=N\O  NCI/ADR-RES              GI50   > 100 µM (inactive)
 6  Cc1cn(C2OC(CO[Si](C)(C)C(C)(C)C)C(N(C)O[Si](C)(C)C(C)(C)C)C2[Se]c2ccccc2)c(=O)[nH]c1=O (centres undefined)  NCI/ADR-RES              GI50    13.2 µM (inactive)
 7      CCN(CC)C(=S)Oc1cc2oc(=O)cc(C)c2cc1Cl  NCI/ADR-RES              GI50   > 100 µM (inactive)
 8          Cc1cccc(/C=C2\CCCc3ccccc3C2=O)c1  NCI/ADR-RES              GI50    22.4 µM (inactive)
 9  COC1CC(C)([N+](=O)[O-])C(O)C(C)O1 (centres undefined)  NCI/ADR-RES              GI50   > 100 µM (inactive)
10  CC(=O)NS(=O)(=O)c1ccc(NC(=O)c2c3ccccc3nc3ccccc23)cc1  NCI/ADR-RES              GI50   > 100 µM (inactive)
11  O=C1NC(=S)NC(=O)C1=C/C=C/c1ccc([N+](=O)[O-])cc1  NCI/ADR-RES              GI50    13.1 µM (inactive)
12  NC(=O)C[S+]([O-])CC(N)C(=O)O (centres undefined)  NCI/ADR-RES              GI50   > 100 µM (inactive)
13  O=C1SC(c2ccc(Cl)cc2)(c2ccc(Cl)cc2)c2ccccc21  NCI/ADR-RES              GI50   > 100 µM (inactive)
14  O=C(O)Cc1cccc2c1OC(c1ccccc1)C(C(=O)c1ccccc1)C2=O (centres undefined)  NCI/ADR-RES              GI50   > 100 µM (inactive)
15  COC(=O)c1c(O)ccc2c1c1c(n2Cc2ccccc2)C(=O)c2ccccc2C1  NCI/ADR-RES              GI50    25.8 µM (inactive)
16  COc1ccccc1C1C2=C(COC2=O)OC(C)(C)Oc2cc3c(cc21)OCO3 (centres undefined)  NCI/ADR-RES              GI50    3.18 µM (inactive)
17  O=CC1C[C@@H](N2C(=O)O[C@@H](c3ccccc3)[C@H]2c2ccccc2)[C@@H]1COCc1ccccc1 (some centres undefined)  NCI/ADR-RES              GI50    26.6 µM (inactive)
18  COc1ccc(C(=O)c2[nH]c(Nc3cc(C)ccn3)c(C(=S)Nc3ccccc3)c2N)cc1  NCI/ADR-RES              GI50    3.49 µM (inactive)
19  COC(=O)c1cc(OC)c(OC)c(OC)c1-c1cc2c(cc1C=O)OCO2  NCI/ADR-RES              GI50    > 10 µM (inactive)
20   COC(=O)/C=C1/OC(c2ccc(Br)cc2)=C(Br)C1=O  NCI/ADR-RES              GI50     9.4 µM (inactive)
21  Cc1cn(CCOCCOC(=O)NC(CCCNC(=N)N)C(=O)O)c(=O)[nH]c1=O (centres undefined)  NCI/ADR-RES              GI50    26.8 µM (inactive)
22  COc1ccc2c(c1)c(CC(=O)O)c(C)n2C(=O)c1ccc(Cl)cc1  NCI/ADR-RES              GI50   > 100 µM (inactive)
23  CCN(CC)CCCNC(=O)c1cc(-c2nccn2C)nc2ccccc12  NCI/ADR-RES              GI50   > 100 µM (inactive)

###

GI50 values, listed per item
tested on: PC-3; assay: NCI tumour cell line growth inhibition, 48 h
Calls of active or inactive are those of the source. Rule as the data show it: active = GI50 up to about 1.1 µM and inactive = higher.
measurement_kind: GI50

>>> print(df.to_string())
                                    compound       value_observed
 0  NS(=O)(=O)c1cc(Cl)c(NC(=S)NC(=O)Nc2ccc(Cl)c(Cl)c2)c(Cl)c1   33.9 µM (inactive)
 1  O=C(Nc1ccccc1)n1[nH]c(=O)n(-c2ccccc2)c1=O  > 100 µM (inactive)
 2                 O=C1Nc2c(Cl)cc(Cl)cc2C1=O   24.3 µM (inactive)
 3  CC1C2C=CC1C(c1c3ccc(=O)c(O)c-3oc3c(O)c(O)ccc13)C2C(=O)O (configuration not stated)  > 100 µM (inactive)
 4  CCCCCC(C)(C)CCC(=O)OC1OC(COC2OC(COC3OC(CO)C(O)C(O)C3O)C(O)C(O)C2O)C(O)C(O)C1O (configuration not stated)  > 100 µM (inactive)
 5                 C=CCn1c(=O)ccn(COCCO)c1=O  > 100 µM (inactive)
 6  N#Cc1ccc(/N=C(/NCC(=O)O)Nc2ccc3ccccc3c2)cc1   > 10 µM (inactive)
 7              Cc1nc2c(=O)n(C)c(=O)n(C)c2o1  > 100 µM (inactive)
 8  NC(=O)N=C(N(Cc1ccccc1)Cc1ccccc1)N(Cc1ccccc1)Cc1ccccc1   4.17 µM (inactive)
 9  Cc1c(CN2CCN(C)CC2)c(CN2CCN(C)CC2)c(C)n1-c1ccc(Cl)cc1   29.4 µM (inactive)
10          Cc1cccc(/C=C2\CCCc3ccccc3C2=O)c1   27.2 µM (inactive)
11  O=C1CCC[C@@H]2NC[C@@H](c3ccc4c(c3)OCO4)[C@H]12   > 25 µM (inactive)

###

test system: SF-268; assay: NCI tumour cell line growth inhibition, 48 h
Activity calls are given as the source filed them. Rule as the data show it: active = GI50 up to about 1.1 µM and inactive = higher.
Outcomes: 1.0 for active, 0.0 for inactive

compound	system	assigned_label
C=CCN1C(=O)/C(=C/c2ccc(OC)cc2)NC1=S	SF-268	0.0
CC(=O)n1c2ccc(Br)cc2c2nc3ccccc3nc21	SF-268	0.0
COC1CC(C)([N+](=O)[O-])C(O)C(C)O1 (configuration not stated)	SF-268	0.0
CCCCc1ccc(Nc2nc(Cl)c3ncn(C4CC(Oc5ccc(C)cc5)C(COc5ccc(C)cc5)O4)c3n2)cc1 (configuration not stated)	SF-268	0.0
O=[N+]([O-])c1ccc(Cl)c(C2SCc3nc4ccccc4n32)c1 (configuration not stated)	SF-268	0.0
CCCCCCCCCC1(N=[N+]=[N-])C(=O)c2ccccc2N(C)C1=O (configuration not stated)	SF-268	0.0
BrCC(Br)(c1ccccc1)c1ccccc1-c1cc(-c2ccccc2)cc(-c2ccccc2)n1 (configuration not stated)	SF-268	0.0
Cc1cc2c(cc1C)C(=O)C1(C2)Cc2cc3c(cc2C1=O)CCC3 (configuration not stated)	SF-268	0.0
CCOC(=O)NC(=S)NC(C)c1ccccc1 (configuration not stated)	SF-268	0.0
CC(Oc1ccc2cc(C(=O)c3ccccc3)c(=O)oc2c1)C(=O)O (configuration not stated)	SF-268	0.0
COc1cc(-c2[nH]ccc2Cl)oc1C1=C2N=C3C=C2C(C(C)C)C1CCCCCCCC3 (configuration not stated)	SF-268	1.0
CN(O)C(=O)CCCC(=O)NCC(C)(C)CNC(=O)CCCC(=O)N(C)O	SF-268	0.0
C=CC1=C(C)/C(=C/C2=NC(=C\c3[nH]c(CC4NC(=O)C(C)/C4=C\C)c(C)c3CCC(=O)O)/C(CC(=O)O)=C2C)NC1=O (configuration not stated)	SF-268	0.0
Nc1ncn(C2C=C(CO)C(O)C2O)c(=O)n1 (configuration not stated)	SF-268	0.0
O=P(CCOc1ccccc1OCCP(=O)(c1ccccc1)c1ccc2c(c1)OCCOCCOCCOCCO2)(c1ccccc1)c1ccc2c(c1)OCCOCCOCCOCCO2 (configuration not stated)	SF-268	0.0
N=C(N)SCc1ccc2c(c1)S(=O)(=O)c1ccccc1O2	SF-268	0.0
CCOC(=O)c1cc(-c2ccn(C(C)=O)c2)c(-c2cc(C)co2)[nH]1	SF-268	0.0
Cc1cc(N(CCC#N)CCC#N)ccc1C(/N=N/c1ccccc1)=N\NC(=O)c1cc(Cl)ccc1O	SF-268	0.0
CC(C)c1cc(OCC(O)CO)cc(C(C)C)c1 (configuration not stated)	SF-268	0.0
NC(=O)C[S+]([O-])CC(N)C(=O)O (configuration not stated)	SF-268	0.0
CCN(CC)CCCNC(=O)c1cc(-c2nccn2C)nc2ccccc12	SF-268	0.0
C=C1C(=O)OC2/C=C(/C)C(OC(C)=O)C/C=C(\C)C(OC(=O)C3(C)OC3C)C(O)C12 (configuration not stated)	SF-268	0.0
O=C(CCn1[nH]c(=O)c(Cl)c(Cl)c1=O)NNC(=O)C[n+]1ccccc1	SF-268	0.0
CCCCCCC1CCC2CCCC(C)N12 (configuration not stated)	SF-268	0.0
COc1cc(S(=O)(=O)Nc2nc(-c3ccc(N4C(=O)/C(=C/C=C/c5ccccc5)N=C4c4ccccc4)cc3)cs2)ccc1Cl	SF-268	0.0
Cc1nc2cn3c(c2c(=O)[nH]1)CCCCC3	SF-268	0.0
On1c(-c2ccccc2)c(-c2ccccc2N2CCCC2)c2ccccc21	SF-268	0.0
NS(=O)(=O)c1cc(Cl)c(NC(=S)NC(=O)Nc2ccc(Cl)c(Cl)c2)c(Cl)c1	SF-268	0.0
CC(=O)OCC1OC(n2c3c(c(-c4ccc(C)cc4)c(C#N)c2=S)C(=O)CC(C)(C)C3)C(OC(C)=O)C(OC(C)=O)C1OC(C)=O (configuration not stated)	SF-268	0.0
O=CNNC(=O)Nc1ccc(Cl)cc1	SF-268	0.0
COc1cc(C[C@H]2c3cc(OC)c(OC)cc3CCN2C)c(Oc2cc3c(cc2OC)-c2c(OC)c(OC)cc4c2[C@H](C3)N(C)CC4)cc1OC [THALICARPINE]	SF-268	0.0
Cc1ccc(NC(=O)CC2C(=O)Nc3ccccc3S2(=O)=O)cc1C (configuration not stated)	SF-268	0.0
COC(=O)/C(C#N)=C(\Nc1ccccc1)N1CCOCC1	SF-268	0.0
Cc1nnc(N/N=C(/C(=O)C(C#N)c2ccccc2)C(C#N)c2ccccc2)n1N (configuration not stated)	SF-268	0.0
NS(=O)(=O)c1cc2c(cc1Cl)NC(C(=O)NNC(=O)c1ccncc1)=NS2(=O)=O	SF-268	0.0
O=c1c(NO)c([N+](=O)[O-])cnn1-c1ccccc1	SF-268	0.0
COC(=O)C1(Cc2cccc(Cl)c2)CCCCCCN1C(=O)c1ccccc1 (configuration not stated)	SF-268	0.0
